Origin of measurements: ChEMBL document CHEMBL4610036

study-target: C-X-C chemokine receptor type 6 (Homo sapiens, UniProt O00574)
method-notes: Antagonist activity at Prolink-tagged human CXCR6 receptor assessed as inhibition of CXCL16-induced beta-arrestin recruitment by DiscoveRx cell based assay
Sequence (O00574 whole entry): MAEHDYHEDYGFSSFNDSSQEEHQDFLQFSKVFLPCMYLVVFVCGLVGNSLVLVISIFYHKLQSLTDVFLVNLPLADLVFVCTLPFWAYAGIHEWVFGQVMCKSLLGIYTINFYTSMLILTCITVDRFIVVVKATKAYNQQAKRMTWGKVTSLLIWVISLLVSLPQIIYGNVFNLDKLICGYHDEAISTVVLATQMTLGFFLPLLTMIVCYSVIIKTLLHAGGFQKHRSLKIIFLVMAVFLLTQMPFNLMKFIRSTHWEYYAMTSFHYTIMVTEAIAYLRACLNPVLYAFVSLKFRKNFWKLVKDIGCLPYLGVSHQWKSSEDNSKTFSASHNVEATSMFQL
# pIC50 values compiled below
To interpret pIC50, take it as minus log10 of a concentration measured in moles per litre.

Solved cases (5 shown):
{"columns": ["structure-as-smiles", "number"],
 "data": [
  ["COc1cc(C(=O)N[C@@H]2C[C@H]3CCC[C@@H](C2)N3CC(=O)Nc2cccc(Cl)c2)cc(OC)c1OC", 6.39],
  ["COc1cc(C(=O)N[C@@H]2C[C@H]3CCC[C@@H](C2)N3CC(=O)Nc2ccc(Cl)cc2)cc(OC)c1OC", 5.82],
  ["COc1cc(C(=O)N[C@@H]2C[C@H]3CCC[C@@H](C2)N3CC(=O)Nc2ccccc2C)cc(OC)c1OC", 6.10],
  ["COc1cc(C(=O)N[C@@H]2C[C@H]3CCC[C@@H](C2)N3CC(=O)Nc2cc(Cl)cc(Cl)c2)cc(OC)c1OC", 6.51],
  ["COc1cc(C(=O)N[C@@H]2C[C@H]3CCC[C@@H](C2)N3Cc2nc3c(Br)cccc3s2)cc(OC)c1OC", 7.10]
]}

Please turn your attention to the following entry.
[in] Supply pIC50 value. Item: `COc1cc(C(=O)N[C@@H]2C[C@H]3CCC[C@@H](C2)N3CC(=O)Nc2ccc(Cl)c(Cl)c2)cc(OC)c1OC`
[out] 6.46

* * *

study-target: UniProtKB O00574
method-notes: Antagonist activity at Prolink-tagged human CXCR6 receptor assessed as inhibition of CXCL16-induced beta-arrestin recruitment by DiscoveRx cell based assay relative to control
Parameters: concentration or dose not given beside the values
condition-context: concentration not given here
Sequence (O00574 whole entry, looked up): as the sequence (O00574 whole entry) above
# inhibition values compiled below
Field format: number, assumed %, no unit text.

{"columns": ["structure-as-smiles", "study-target", "number"],
 "data": [
  ["COc1cc(C(=O)N[C@@H]2C[C@H]3CCC[C@@H](C2)N3Cc2nc3ccccc3o2)cc(OC)c1OC", "UniProtKB O00574", 83],
  ["COc1cc(C(=O)N[C@@H]2C[C@H]3CCC[C@@H](C2)N3CC(=O)Nc2cccc(Cl)c2)cc(OC)c1OC", "UniProtKB O00574", 105],
  ["CCOC(=O)c1ccccc1NC(=O)CN1[C@@H]2CCC[C@H]1C[C@H](NC(=O)c1cc(OC)c(OC)c(OC)c1)C2", "UniProtKB O00574", 79]
]}

[in] Supply inhibition value. Item: `COc1cc(C(=O)N[C@@H]2C[C@H]3CCC[C@@H](C2)N3Cc2nc3cc(Cl)ccc3s2)cc(OC)c1OC`
[out] 100

[in] Supply inhibition value. Item: `COc1cc(C(=O)N[C@@H]2C[C@H]3CCC[C@@H](C2)N3CC(=O)Nc2cc(C)ccc2C)cc(OC)c1OC`
[out] 105

[in] Supply inhibition value. Item: `COc1cc(C(=O)N[C@@H]2C[C@H]3CCC[C@@H](C2)N3CC(=O)Nc2c(Cl)cccc2Cl)cc(OC)c1OC`
[out] 57

[in] Supply inhibition value. Item: `COc1cc(C(=O)N[C@@H]2C[C@H]3CCC[C@@H](C2)N3CC(=O)Nc2cccc(C)c2)cc(OC)c1OC`
[out] 102

[in] Supply inhibition value. Item: `COc1cc(C(=O)N[C@@H]2C[C@H]3CCC[C@@H](C2)N3Cc2ccccc2Cl)cc(OC)c1OC`
[out] 99

[in] Supply inhibition value. Item: `COc1cc(C(=O)N[C@@H]2C[C@H]3CCC[C@@H](C2)N3CC(=O)Nc2ccc(F)cc2)cc(OC)c1OC`
[out] 100

[in] Supply inhibition value. Item: `COc1cc(C(=O)N[C@@H]2C[C@H]3CCC[C@@H](C2)N3Cc2nc3c(C(F)(F)F)cccc3s2)cc(OC)c1OC`
[out] 103

* * *

study-target: C-X-C chemokine receptor type 6 (Homo sapiens, UniProt O00574)
method-notes: Antagonist activity at Prolink-tagged human CXCR6 receptor assessed as inhibition of forskolin-induced cAMP accumulation by DiscoveRx cell based assay
Assay type: functional
# pIC50 values compiled below
To interpret pIC50, take it as minus log10 of a concentration measured in moles per litre.

Solved cases (5 shown):
{"columns": ["structure-as-smiles", "pIC50"],
 "data": [
  ["COc1cc(C(=O)N[C@@H]2C[C@H]3CCC[C@@H](C2)N3Cc2ccc3ccccc3c2)cc(OC)c1OC", 4.33],
  ["COc1cc(C(=O)N[C@@H]2C[C@H]3CCC[C@@H](C2)N3CC(=O)Nc2cccc(Br)c2)cc(OC)c1OC", 5.42],
  ["COc1cc(C(=O)N[C@@H]2C[C@H]3CCC[C@@H](C2)N3CC(=O)Nc2cc(Cl)cc(Cl)c2)cc(OC)c1OC", 5.89],
  ["COc1cc(C(=O)N[C@@H]2C[C@H]3CCC[C@@H](C2)N3Cc2nc3c(F)cccc3s2)cc(OC)c1OC", 5.72],
  ["COc1cc(C(=O)N[C@@H]2C[C@H]3CCC[C@@H](C2)N3CC(=O)Nc2ccccc2C(F)(F)F)cc(OC)c1OC", 5.10]
]}

[in] Supply pIC50 value. Item: `COc1cc(C(=O)N[C@@H]2C[C@H]3CCC[C@@H](C2)N3CC(=O)Nc2ccc(Cl)c(Cl)c2)cc(OC)c1OC`
[out] 5.74

[in] Supply pIC50 value. Item: `COc1cc(C(=O)N[C@@H]2C[C@H]3CCC[C@@H](C2)N3CC(=O)Nc2ccccc2Cl)cc(OC)c1OC`
[out] 5.85

[in] Supply pIC50 value. Item: `COc1cc(C(=O)N[C@@H]2C[C@H]3CCC[C@@H](C2)N3CC(=O)Nc2cccc(F)c2)cc(OC)c1OC`
[out] 5.07

* * *

# inhibition values compiled below
study-target: C-X-C chemokine receptor type 6 (Homo sapiens, UniProt O00574)
method-notes: Antagonist activity at Prolink-tagged human CXCR6 receptor assessed as inhibition of CXCL16-induced beta-arrestin recruitment by DiscoveRx cell based assay relative to control
Parameters: concentration or dose not given beside the values
condition-context: concentration not given here
Field format: number, assumed %, no unit text.

{"columns": ["structure-as-smiles", "output-unit", "number"],
 "data": [
  ["COc1cc(C(=O)N[C@@H]2C[C@H]3CCC[C@@H](C2)N3CC(=O)c2nc3ccccc3s2)cc(OC)c1OC", "%", 75],
  ["COc1cc(C(=O)N[C@@H]2C[C@H]3CCC[C@@H](C2)N3CC(=O)Nc2ccccc2Cl)cc(OC)c1OC", "%", 100],
  ["COc1cc(C(=O)N[C@@H]2C[C@H]3CCC[C@@H](C2)N3Cc2cccc(Cl)c2)cc(OC)c1OC", "%", 97],
  ["COc1cc(C(=O)N[C@@H]2C[C@H]3CCC[C@@H](C2)N3Cc2ccc(Cl)cc2)cc(OC)c1OC", "%", 90],
  ["COc1cc(C(=O)N[C@@H]2C[C@H]3CCC[C@@H](C2)N3Cc2nc3c(F)cccc3s2)cc(OC)c1OC", "%", 103]
]}

[in] Supply inhibition value. Item: `COc1cc(C(=O)N[C@@H]2C[C@H]3CCC[C@@H](C2)N3Cc2nc3c(OC)cccc3s2)cc(OC)c1OC`
[out] 86

* * *

# inhibition values compiled below
study-target: C-X-C chemokine receptor type 6 (Homo sapiens)
method-notes: Antagonist activity at Prolink-tagged human CXCR6 receptor assessed as inhibition of forskolin-induced cAMP accumulation by DiscoveRx cell based assay relative to control
Type: functional
Design: concentration or dose not given beside the values
condition-context: concentration not given here
Field format: number, assumed %, no unit text.

Solved cases (10 shown):
{"columns": ["structure-as-smiles", "observation-type", "number"],
 "data": [
  ["COc1cc(C(=O)N[C@@H]2C[C@H]3CCC[C@@H](C2)N3CC(=O)Nc2cc(Cl)ccc2Cl)cc(OC)c1OC", "inhibition", 101],
  ["COc1cc(C(=O)N[C@@H]2C[C@H]3CCC[C@@H](C2)N3CC(=O)Nc2ccc(Cl)cc2)cc(OC)c1OC", "inhibition", 93],
  ["COc1cc(C(=O)N[C@@H]2C[C@H]3CCC[C@@H](C2)N3Cc2nc3c(Br)cccc3s2)cc(OC)c1OC", "inhibition", 91],
  ["COc1cc(C(=O)N[C@@H]2C[C@H]3CCC[C@@H](C2)N3CC(=O)Nc2ccc(Cl)c(Cl)c2)cc(OC)c1OC", "inhibition", 101],
  ["COc1cc(C(=O)N[C@@H]2C[C@H]3CCC[C@@H](C2)N3Cc2nc3c(Cl)cccc3s2)cc(OC)c1OC", "inhibition", 95],
  ["COc1cc(C(=O)N[C@@H]2C[C@H]3CCC[C@@H](C2)N3CC(=O)Nc2ccc(Cl)cc2Cl)cc(OC)c1OC", "inhibition", 105],
  ["COc1cccc(C(=O)N[C@@H]2C[C@H]3CCC[C@@H](C2)N3CC(=O)Nc2ccc(Cl)cc2)c1", "inhibition", 87],
  ["COc1cc(C(=O)N[C@@H]2C[C@H]3CCC[C@@H](C2)N3Cc2nc3c(F)cccc3s2)cc(OC)c1OC", "inhibition", 105],
  ["COc1cc(C(=O)N[C@@H]2C[C@H]3CCC[C@@H](C2)N3Cc2nc3ccc(Cl)cc3s2)cc(OC)c1OC", "inhibition", 83],
  ["COc1cc(C(=O)N[C@@H]2C[C@H]3CCC[C@@H](C2)N3Cc2nc3ccccc3o2)cc(OC)c1OC", "inhibition", 26]
]}

[in] Supply inhibition value. Item: `COc1cc(C(=O)N[C@H]2C[C@H]3CCC[C@@H](C2)N3CC(=O)Nc2ccccc2)cc(OC)c1OC`
[out] 70

[in] Supply inhibition value. Item: `COc1cc(C(=O)N[C@@H]2C[C@H]3CCC[C@@H](C2)N3CC(=O)Nc2ccccc2F)cc(OC)c1OC`
[out] 99

[in] Supply inhibition value. Item: `COc1cc(C(=O)N[C@@H]2C[C@H]3CCC[C@@H](C2)N3CC(=O)Nc2ccccc2)cc(OC)c1OC`
[out] 86

[in] Supply inhibition value. Item: `COc1cc(C(=O)N[C@@H]2C[C@H]3CCC[C@@H](C2)N3Cc2nc3ccccc3s2)cc(OC)c1OC`
[out] 85

[in] Supply inhibition value. Item: `COc1cc(C(=O)N[C@@H]2C[C@H]3CCC[C@@H](C2)N3Cc2ccccc2Cl)cc(OC)c1OC`
[out] 101
